Each entry below carries its recorded IC50.
Test system: L. donovani (MHOM/IN/80/DD8) promastigotes
protocol: In vitro promastigote susceptibility assay (resazurin)
Format: cell-based
experimental_context: Leishmania donovani; L. donovani promastigotes, 48 h at 26 °C, triplicate; N/A = not active at 100 μg/mL
Description: The following species of Leishmania were used: L. donovani (MHOM/IN/80/DD8) was purchased (ATCC, USA) and L. amazonensis (MHOM/Br/79/Maria) was kindly provided by Prof. Alfredo Toraño (Instituto de Salud Carlos III, Madrid). […] Growth inhibition (%) was calculated by 100 – [(RFU treated wells – RFU signal-to-noise)/(RFU untreated – RFU signal-to-noise) × 100]. […] Miltefosine (Sigma-Merck, Madrid, Spain) was used as the reference drug and was evaluated under the same conditions. […]
measured_metric: IC50 (µM)

>>> recorded_measurement("Cc1ccc(C(=O)c2cccn2-c2ncccc2C)cc1")
120
>>> recorded_measurement("O=C(c1ccc(Br)cc1)c1cccn1-c1ncccn1")
118
>>> recorded_measurement("Cc1cccnc1-n1cccc1C(=O)c1ccc(F)cc1")
7.78
>>> recorded_measurement("O=C(c1ccc(Cl)cc1)c1cccn1-c1ncccn1")
190
>>> recorded_measurement("COc1cc(OC)cc(C(=O)c2cccn2-c2ncccn2)c1")
211
>>> recorded_measurement("Cc1cccnc1-n1cccc1C(=O)c1ccn(C(C)(C)C)c1")
92.8

====

Tested on: L. amazonensis (MHOM/Br/79/Maria) promastigotes
protocol: In vitro promastigote susceptibility assay (resazurin)
Assay type: cell-based
experimental_context: CC50 J774 / IC50 L. amazonensis promastigotes
Each entry below carries its recorded SI (selectivity index, SI = CC50/IC50).
measured_metric: SI (selectivity index, SI = CC50/IC50)

>>> recorded_measurement("Cc1cccnc1-n1cccc1C(=O)c1ccc(Br)cc1 [5bf]")
">3.14"
>>> recorded_measurement("Cc1cccnc1-n1cccc1C(=O)c1ccc(C(C)(C)C)cc1 [5bc]")
">10.17"
>>> recorded_measurement("COc1ccc(C(=O)c2cccn2-c2ncccc2C)cc1 [5bo]")
">1.53"

====

Tested on: L. donovani (MHOM/IN/80/DD8) promastigotes
protocol: In vitro promastigote susceptibility assay (resazurin)
Assay type: cell-based
experimental_context: Leishmania donovani; L. donovani promastigotes, 48 h at 26 °C, triplicate; N/A = not active at 100 μg/mL
The compounds listed here are annotated with their IC50.
measured_metric: IC50

>>> recorded_measurement("O=C(c1cc(C(F)(F)F)cc(C(F)(F)F)c1)c1cccn1-c1ncccn1")
"199 µM"
>>> recorded_measurement("O=C(c1ccccc1)c1cccn1-c1ncccn1")
"> 100 µg/mL"
>>> recorded_measurement("Cc1cccnc1-n1cccc1C(=O)c1ccoc1")
"> 100 µg/mL"
>>> recorded_measurement("CC(C)(C)c1ccc(C(=O)c2cccn2-c2ncccn2)cc1")
"58.5 µM"
>>> recorded_measurement("Cc1cccnc1-n1cccc1C(=O)c1ccc(C#N)cc1")
"315 µM"
>>> recorded_measurement("COc1ccc(C(=O)c2cccn2-c2ncccc2C)cc1")
"173 µM"

====

SI (selectivity index, SI = CC50/IC50) overview
Test system: L. amazonensis (MHOM/Br/79/Maria) promastigotes
protocol: In vitro promastigote susceptibility assay (resazurin)
Assay type: cell-based
experimental_context: CC50 J774 / IC50 L. amazonensis promastigotes
measured_metric: SI (selectivity index, SI = CC50/IC50)

>>> recorded_measurement("Cc1cccnc1-n1cccc1C(=O)c1ccn(C(C)(C)C)c1 [5bq]")
">1.56"
>>> recorded_measurement("Cc1cccnc1-n1cccc1C(=O)c1ccccc1 [5ba]")
">2.50"
>>> recorded_measurement("O=C(c1ccc(C(F)(F)F)cc1)c1cccn1-c1ncccn1 [5ai]")
">3.13"
>>> recorded_measurement("O=C(c1ccc(Cl)cc1)c1cccn1-c1ncccn1 [5ae]")
">3.01"
>>> recorded_measurement("O=C(c1ccc(Br)cc1)c1cccn1-c1ncccn1 [5af]")
">4.54"
>>> recorded_measurement("Cc1cccnc1-n1cccc1C(=O)c1ccc(Cl)cc1 [5be]")
">2.89"
>>> recorded_measurement("O=C(c1ccccc1)c1cccn1-c1ncccn1 [5aa]")
">1.55"
>>> recorded_measurement("Cc1cccnc1-n1cccc1C(=O)c1ccc(C#N)cc1 [5bg]")
">1.81"
>>> recorded_measurement("COc1cc(OC)cc(C(=O)c2cccn2-c2ncccn2)c1 [5aj]")
">2.71"
>>> recorded_measurement("Cc1ccc(C(=O)c2cccn2-c2ncccc2C)cc1 [5bb]")
">2.43"
>>> recorded_measurement("COc1cc(OC)cc(C(=O)c2cccn2-c2ncccc2C)c1 [5bj]")
">1.53"

Where do these numbers come from? They come from paper PMC9986876.
